- target-or-test-system: Gal-1 (Galectin-1) (Homo sapiens)
- Sequence (P09382 whole entry): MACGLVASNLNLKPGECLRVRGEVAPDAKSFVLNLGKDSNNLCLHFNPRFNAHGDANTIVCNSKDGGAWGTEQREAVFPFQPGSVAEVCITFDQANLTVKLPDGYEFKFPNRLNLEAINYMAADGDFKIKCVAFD
- test-details: Isothermal titration calorimetry, binding to Gal-1
- test-conditions: ITC, 25 °C, phosphate buffer pH 7.2; one-set-of-sites model
readout: −ΔH

# count of solved cases: 3
CC(=O)NC1C(OC(C)C(N)C(=O)O)OC(CO)C(O)C1OC1OC(CO)C(O)C(O)C1O (stereo not shown)
16.6 (± 0.269) kcal/mol
CC(=O)N[C@H]1C(O)O[C@H](CO)[C@@H](O[C@@H]2O[C@H](CO)[C@H](O)[C@H](O)[C@H]2O)[C@@H]1O (stereo partly shown)
9.97 (± 0.151) kcal/mol
OC[C@H]1O[C@@H](O[C@H]2[C@H](O)[C@@H](O)C(O)O[C@@H]2CO)[C@H](O)[C@@H](O)[C@H]1O (mixture of isomers)
11.9 (± 0.906) kcal/mol

Form field: −ΔH recorded for CC(=O)N[C@@H](C=O)[C@@H](O[C@@H]1O[C@H](CO)[C@H](O)[C@H](O)[C@H]1O)[C@@H](O)[C@H](O)CO with Gal-1 (Galectin-1) (Homo sapiens) (enter value) 16.7 (± 0.221) kcal/mol

----------
- target-or-test-system: Gal-1 (Galectin-1) (Homo sapiens)
- test-details: Isothermal titration calorimetry, binding to Gal-1
- test-conditions: ITC, PEAQ-ITC, 25 °C, 20 mM phosphate, 10 mM NaCl, 10 mM β-mercaptoethanol, pH 7.2; one-set-of-sites model; [ligand] mM/[cell] μM: LacNAc 6.0/140, lactose 8.0/80, ASF 218/61 (so in the source), TF and Thr-TF 6.0/50
readout: Kd (mM)

a. CC(=O)NC1C(OC(C)C(N)C(=O)O)OC(CO)C(O)C1OC1OC(CO)C(O)C(O)C1O (centres unmarked) [Thr-TF, Gal1–3βGalNAcα1-O-Thr]
b. CC(=O)N[C@H]1C(O)O[C@H](CO)[C@@H](O[C@@H]2O[C@H](CO)[C@H](O)[C@H](O)[C@H]2O)[C@@H]1O (some centres unmarked) [LacNAc, N-Acetyllactosamine]
# returns the entry with the larger Kd; inputs a and b Please indicate the selected item by its label. a
(a: 3.96 mM, b: 0.083 mM)
